Data provenance is the supplement of paper PMC8617591.

tested on: Mycobacterium tuberculosis Erdman (autoluminescent); assay: total FIC90 (Loewe) at 90% inhibition, three-drug combination (log2); higher = more antagonistic; conditions: in vitro model: dormancy (butyrate + nitrate, low O2); time point: terminal (~4-5 doublings, model-specific)
Here the recorded total FIC90 is given for each entry.
Quantity kind: total FIC90

INSERT INTO measurements (compound, test_system, recorded_number) VALUES
  ('COc1nc2ccc(Br)cc2cc1[C@@H](c1ccccc1)[C@@](O)(CCN(C)C)c1cccc2ccccc12 [bedaquiline] + COc1c(N2C[C@@H]3CCCN[C@@H]3C2)c(F)cc2c(=O)c(C(=O)O)cn(C3CC3)c12 [moxifloxacin] + O=[N+]([O-])c1cn2c(n1)OC[C@@H](OCc1ccc(OC(F)(F)F)cc1)C2 [pretomanid]', 'Mycobacterium tuberculosis Erdman (autoluminescent)', 0.118),
  ('COc1nc2ccc(Br)cc2cc1[C@@H](c1ccccc1)[C@@](O)(CCN(C)C)c1cccc2ccccc12 [bedaquiline] + CC(C)/N=c1\cc2n(-c3ccc(Cl)cc3)c3ccccc3nc-2cc1Nc1ccc(Cl)cc1 [clofazimine] + NNC(=O)c1ccncc1 [isoniazid]', 'Mycobacterium tuberculosis Erdman (autoluminescent)', -0.303),
  ('CC[C@@H](CO)NCCN[C@@H](CC)CO [ethambutol] + CC(=O)NC[C@H]1CN(c2ccc(N3CCOCC3)c(F)c2)C(=O)O1 [linezolid] + O=[N+]([O-])c1cn2c(n1)OC[C@@H](OCc1ccc(OC(F)(F)F)cc1)C2 [pretomanid]', 'Mycobacterium tuberculosis Erdman (autoluminescent)', -0.19),
  ('CC(C)/N=c1\cc2n(-c3ccc(Cl)cc3)c3ccccc3nc-2cc1Nc1ccc(Cl)cc1 [clofazimine] + CC[C@@H](CO)NCCN[C@@H](CC)CO [ethambutol] + CC(=O)NC[C@H]1CN(c2ccc(N3CCOCC3)c(F)c2)C(=O)O1 [linezolid]', 'Mycobacterium tuberculosis Erdman (autoluminescent)', 0.279),
  ('COc1nc2ccc(Br)cc2cc1[C@@H](c1ccccc1)[C@@](O)(CCN(C)C)c1cccc2ccccc12 [bedaquiline] + CC(C)/N=c1\cc2n(-c3ccc(Cl)cc3)c3ccccc3nc-2cc1Nc1ccc(Cl)cc1 [clofazimine] + CO[C@H]1/C=C/O[C@@]2(C)Oc3c(C)c(O)c4c(O)c(c(/C=N/N5CCN(C)CC5)c(O)c4c3C2=O)NC(=O)/C(C)=C\C=C\[C@H](C)[C@H](O)[C@@H](C)[C@@H](O)[C@@H](C)[C@H](OC(C)=O)[C@@H]1C [rifampicin]', 'Mycobacterium tuberculosis Erdman (autoluminescent)', -0.344),
  ('NNC(=O)c1ccncc1 [isoniazid] + COc1c(N2C[C@@H]3CCCN[C@@H]3C2)c(F)cc2c(=O)c(C(=O)O)cn(C3CC3)c12 [moxifloxacin] + CO[C@H]1/C=C/O[C@@]2(C)Oc3c(C)c(O)c4c(O)c(c(/C=N/N5CCN(C6CCCC6)CC5)c(O)c4c3C2=O)NC(=O)/C(C)=C\C=C\[C@H](C)[C@H](O)[C@@H](C)[C@@H](O)[C@@H](C)[C@H](OC(C)=O)[C@@H]1C [rifapentine]', 'Mycobacterium tuberculosis Erdman (autoluminescent)', 0.61);

###

test system: Mycobacterium tuberculosis Erdman (autoluminescent); experiment: total FIC50 (Loewe) at 50% inhibition, three-drug combination (log2); higher = more antagonistic; conditions: in vitro model: valerate; time point: terminal (~4-5 doublings, model-specific)
Quantity kind: total FIC50

INSERT INTO measurements (compound, quantity_kind, recorded_number) VALUES
  ('CC(=O)NC[C@H]1CN(c2ccc(N3CCOCC3)c(F)c2)C(=O)O1 [linezolid] + NC(=O)c1cnccn1 [pyrazinamide] + CO[C@H]1/C=C/O[C@@]2(C)Oc3c(C)c(O)c4c(O)c(c(/C=N/N5CCN(C6CCCC6)CC5)c(O)c4c3C2=O)NC(=O)/C(C)=C\C=C\[C@H](C)[C@H](O)[C@@H](C)[C@@H](O)[C@@H](C)[C@H](OC(C)=O)[C@@H]1C [rifapentine]', 'total FIC50', -0.0139),
  ('CC(C)/N=c1\cc2n(-c3ccc(Cl)cc3)c3ccccc3nc-2cc1Nc1ccc(Cl)cc1 [clofazimine] + CC[C@@H](CO)NCCN[C@@H](CC)CO [ethambutol] + CO[C@H]1/C=C/O[C@@]2(C)Oc3c(C)c(O)c4c(O)c(c(/C=N/N5CCN(C6CCCC6)CC5)c(O)c4c3C2=O)NC(=O)/C(C)=C\C=C\[C@H](C)[C@H](O)[C@@H](C)[C@@H](O)[C@@H](C)[C@H](OC(C)=O)[C@@H]1C [rifapentine]', 'total FIC50', 0.462);

###

Here the recorded Einf is given for each entry.
system: Mycobacterium tuberculosis Erdman (autoluminescent); experiment: Einf, fitted maximum growth inhibition of combination (fraction); higher = stronger maximal inhibition; details: in vitro model: dormancy (butyrate + nitrate, low O2); time point: terminal (~4-5 doublings, model-specific)
Quantity kind: Einf

INSERT INTO assay_data (compound, quantity_kind, result) VALUES
  ('CC[C@@H](CO)NCCN[C@@H](CC)CO [ethambutol] + COc1c(N2C[C@@H]3CCCN[C@@H]3C2)c(F)cc2c(=O)c(C(=O)O)cn(C3CC3)c12 [moxifloxacin]', 'Einf', 0.967),
  ('COc1c(N2C[C@@H]3CCCN[C@@H]3C2)c(F)cc2c(=O)c(C(=O)O)cn(C3CC3)c12 [moxifloxacin] + CO[C@H]1/C=C/O[C@@]2(C)Oc3c(C)c(O)c4c(O)c(c(/C=N/N5CCN(C)CC5)c(O)c4c3C2=O)NC(=O)/C(C)=C\C=C\[C@H](C)[C@H](O)[C@@H](C)[C@@H](O)[C@@H](C)[C@H](OC(C)=O)[C@@H]1C', 'Einf', 0.98),
  ('NNC(=O)c1ccncc1 [isoniazid] + CO[C@H]1/C=C/O[C@@]2(C)Oc3c(C)c(O)c4c(O)c(c(/C=N/N5CCN(C)CC5)c(O)c4c3C2=O)NC(=O)/C(C)=C\C=C\[C@H](C)[C@H](O)[C@@H](C)[C@@H](O)[C@@H](C)[C@H](OC(C)=O)[C@@H]1C [rifampicin]', 'Einf', 0.989),
  ('CC(C)/N=c1\cc2n(-c3ccc(Cl)cc3)c3ccccc3nc-2cc1Nc1ccc(Cl)cc1 [clofazimine] + NC(=O)c1cnccn1 [pyrazinamide]', 'Einf', 0.989);

###

test system: Mycobacterium tuberculosis Erdman (autoluminescent); assay: total FIC50 (Loewe) at 50% inhibition, three-drug combination (log2); higher = more antagonistic; details: in vitro model: cholesterol-high 0.2 mM; time point: constant (~7 days, model-specific)
Quantity kind: total FIC50

INSERT INTO results (compound, recorded_number) VALUES
  ('CC(C)/N=c1\cc2n(-c3ccc(Cl)cc3)c3ccccc3nc-2cc1Nc1ccc(Cl)cc1 [clofazimine] + CC[C@@H](CO)NCCN[C@@H](CC)CO [ethambutol] + O=[N+]([O-])c1cn2c(n1)OC[C@@H](OCc1ccc(OC(F)(F)F)cc1)C2 [pretomanid]', 1.08),
  ('NC(=O)c1cnccn1 [pyrazinamide] + CO[C@H]1/C=C/O[C@@]2(C)Oc3c(C)c(O)c4c(O)c(c(/C=N/N5CCN(C6CCCC6)CC5)c(O)c4c3C2=O)NC(=O)/C(C)=C\C=C\[C@H](C)[C@H](O)[C@@H](C)[C@@H](O)[C@@H](C)[C@H](OC(C)=O)[C@@H]1C [rifapentine] + CO[C@H]1/C=C/O[C@@]2(C)Oc3c(C)c(O)c4c(O)c(c(/C=N/N5CCN(C)CC5)c(O)c4c3C2=O)NC(=O)/C(C)=C\C=C\[C@H](C)[C@H](O)[C@@H](C)[C@@H](O)[C@@H](C)[C@H](OC(C)=O)[C@@H]1C', 0.97),
  ('CC(=O)NC[C@H]1CN(c2ccc(N3CCOCC3)c(F)c2)C(=O)O1 [linezolid] + COc1c(N2C[C@@H]3CCCN[C@@H]3C2)c(F)cc2c(=O)c(C(=O)O)cn(C3CC3)c12 [moxifloxacin] + NC(=O)c1cnccn1 [pyrazinamide]', 0.486),
  ('COc1nc2ccc(Br)cc2cc1[C@@H](c1ccccc1)[C@@](O)(CCN(C)C)c1cccc2ccccc12 [bedaquiline] + CC[C@@H](CO)NCCN[C@@H](CC)CO [ethambutol] + CO[C@H]1/C=C/O[C@@]2(C)Oc3c(C)c(O)c4c(O)c(c(/C=N/N5CCN(C)CC5)c(O)c4c3C2=O)NC(=O)/C(C)=C\C=C\[C@H](C)[C@H](O)[C@@H](C)[C@@H](O)[C@@H](C)[C@H](OC(C)=O)[C@@H]1C [rifampicin]', 0.869),
  ('COc1nc2ccc(Br)cc2cc1[C@@H](c1ccccc1)[C@@](O)(CCN(C)C)c1cccc2ccccc12 [bedaquiline] + CC[C@@H](CO)NCCN[C@@H](CC)CO [ethambutol] + CC(=O)NC[C@H]1CN(c2ccc(N3CCOCC3)c(F)c2)C(=O)O1 [linezolid]', 0.98),
  ('NNC(=O)c1ccncc1 [isoniazid] + COc1c(N2C[C@@H]3CCCN[C@@H]3C2)c(F)cc2c(=O)c(C(=O)O)cn(C3CC3)c12 [moxifloxacin] + NC(=O)c1cnccn1 [pyrazinamide]', 0.416);
